Target: human recombinant CB1R (Homo sapiens)
Construct: purchased Perkin-Elmer, Italy; host or cells: HEK-293 cells (membranes)
Sequence (P21554 whole entry): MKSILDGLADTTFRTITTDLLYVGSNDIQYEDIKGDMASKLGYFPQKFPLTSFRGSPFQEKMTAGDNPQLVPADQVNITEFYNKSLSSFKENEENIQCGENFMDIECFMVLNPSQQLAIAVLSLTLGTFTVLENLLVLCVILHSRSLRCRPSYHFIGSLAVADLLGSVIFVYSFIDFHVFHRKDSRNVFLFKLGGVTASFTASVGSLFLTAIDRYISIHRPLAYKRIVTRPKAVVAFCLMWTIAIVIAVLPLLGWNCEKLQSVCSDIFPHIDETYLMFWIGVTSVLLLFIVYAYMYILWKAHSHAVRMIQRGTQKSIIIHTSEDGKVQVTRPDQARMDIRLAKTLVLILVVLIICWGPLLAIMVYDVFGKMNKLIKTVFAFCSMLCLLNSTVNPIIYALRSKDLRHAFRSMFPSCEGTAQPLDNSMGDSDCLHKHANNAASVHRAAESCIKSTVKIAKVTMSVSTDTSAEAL
Test: Competition binding assay, displacement of [3H]-CP-55,940 from membranes of HEK-293 cells overexpressing CB1R
Conditions: [3H]-CP-55,940 displacement, HEK-293 membranes, 90 min at 30 °C, Cheng-Prusoff; read-out: Ki hCB1R (µM ± S.E.)
EXPERIMENTAL ENDPOINT: Ki

Below is a list of compounds. For each, state its recorded Ki.
1. Cc1ccc(S(=O)(=O)N=C2CN(C(C)(C)C)C(=O)N2c2ccccc2)cc1
2. CC(C)(C)N1CC(=NS(C)(=O)=O)N(CC2CC2)C1=O [Compound 10a]

# output
["> 10 µM", "> 10 µM"]

Report Ki for each item below.
1. O=C1N(CC2CC2)C(=NS(=O)(=O)c2ccc(Br)cc2)CN1C12CC3CC(CC(C3)C1)C2 [Compound 12d]
2. CC(C)(C)N1CC(=NS(=O)(=O)c2ccc(Br)cc2)N(CC2CC2)C1=O [Compound 10d]

# output
["> 10 µM", "> 10 µM"]

Give measured Ki for every item shown.
1. Cc1ccc(S(=O)(=O)N=C2CN(C)C(=O)N2C)cc1
2. CS(=O)(=O)N=C1CN(C23CC4CC(CC(C4)C2)C3)C(=O)N1CC1CC1 [Compound 12a]
3. CC(C)(C)N1CC(=NS(=O)(=O)c2cccc3ccccc23)N(c2ccccc2)C1=O
4. COCCN1C(=O)N(C(C)(C)C)CC1=NS(=O)(=O)c1ccc(C)cc1 [Compound 11c]

# output
["> 10 µM", "0.21 µM", "> 10 µM", "> 10 µM"]

----------
What melting point was measured for each of the following?

CS(=O)(=O)N=C1CN(C23CC4CC(CC(C4)C2)C3)C(=O)N1CC1CC1 [Compound 12a] = 199.5 to 200 °C
CC(C)(C)N1CC(=NS(C)(=O)=O)N(CC2CC2)C1=O [Compound 10a] = 83.5 to 84 °C

// for each compound below, give its melting point
1. O=C1N(CC2CC2)/C(=N/S(=O)(=O)c2cccc3ccccc23)CN1C12CC3CC(CC(C3)C1)C2 [Compound 12g]
2. Cc1cc(C)c(S(=O)(=O)N=C2CN(C(C)(C)C)C(=O)N2CC2CC2)c(C)c1 [Compound 10f]
3. COCCN1C(=O)N(C(C)(C)C)CC1=NS(=O)(=O)c1c(C)cc(C)cc1C [Compound 11f]
4. O=C1N(CC2CC2)/C(=N/S(=O)(=O)c2ccc3ccccc3c2)CN1C12CC3CC(CC(C3)C1)C2 [Compound 12h]
5. CC(C)(C)N1CC(=NS(=O)(=O)c2cccc(Br)c2)N(CC2CC2)C1=O [Compound 10e]
6. COCCN1C(=O)N(C(C)(C)C)CC1=NS(=O)(=O)c1ccc(Br)cc1 [Compound 11d]
7. Cc1cc(C)c(S(=O)(=O)N=C2CN(C34CC5CC(CC(C5)C3)C4)C(=O)N2CC2CC2)c(C)c1 [Compound 12f]

# output
1: 188.5 to 189 °C; 2: 149 to 150 °C; 3: 141 to 143.5 °C; 4: 167 to 167.5 °C; 5: 114 to 115 °C; 6: 103.5 to 104 °C; 7: 166.5 to 167.5 °C
